Record: pKi reported on hCA IX (Homo sapiens, UniProt Q16790).
To interpret pKi, take it as minus log10 of a concentration measured in moles per litre.

Reference set (3 entries):
COCCOc1cc2ncnc(Nc3cccc(-c4cn(CCOCCOCCOCCOCCOCCNC(=O)Nc5cccc(S(N)(=O)=O)c5)nn4)c3)c2cc1OCCOC [compound 12a] ... 5.35
COCCOc1cc2ncnc(Nc3cccc(-c4cn(CCOCCOCCOCCNC(=S)Nc5cccc(S(N)(=O)=O)c5)nn4)c3)c2cc1OCCOC ... 5.72
COCCOc1cc2ncnc(Nc3cccc(-c4cn(CCOCCOCCOCCOCCOCCNC(=S)NCc5ccc(S(N)(=O)=O)cc5)nn4)c3)c2cc1OCCOC [compound 14c] ... 5.43

Next molecule, pKi to be filled in.
(Q) Please provide the recorded pKi for COCCOc1cc2ncnc(Nc3cccc(-c4cn(CCOCCOCCOCCNC(=O)Nc5ccc(S(N)(=O)=O)cc5)nn4)c3)c2cc1OCCOC , tested on hCA IX (Homo sapiens, UniProt Q16790).
(A) 5.95

###

MEASURED_TARGET: hCA IX (Homo sapiens)
ASSAY_INFO: stopped-flow CO2 hydration assay, hCA IX
Assay type: biochemical
EXPERIMENTAL_SETUP: ratio of KI hCA I to KI hCA IX
Where SI I/IX equals or exceeds 4, the correct label is Met; where it does not, the label is Not met.

Some solved entries appear below for comparison.
COCCOc1cc2ncnc(Nc3cccc(-c4cn(CCOCCOCCOCCNC(=S)Nc5ccc(S(N)(=O)=O)cc5)nn4)c3)c2cc1OCCOC ... Met
COCCOc1cc2ncnc(Nc3cccc(-c4cn(CCOCCOCCOCCNC(=S)Nc5ccc(S(N)(=O)=O)c(C)c5Br)nn4)c3)c2cc1OCCOC ... Not met
COCCOc1cc2ncnc(Nc3cccc(-c4cn(CCOCCOCCOCCOCCOCCC(=O)NCCOc5ccc6oc(=O)ccc6c5)nn4)c3)c2cc1OCCOC ... Met
COCCOc1cc2ncnc(Nc3cccc(-c4cn(CCOCCOCCOCCOCCOCCNC(=O)Nc5ccc6oc(=O)ccc6c5)nn4)c3)c2cc1OCCOC ... Met

(Q) Does the compound COCCOc1cc2ncnc(Nc3cccc(-c4cn(CCOCCOCCOCCOCCOCCNC(=O)Nc5ccc(S(N)(=O)=O)cc5)nn4)c3)c2cc1OCCOC [compound 12b] have recorded SI I/IX that is 4 or more?
(A) Met
